I'd appreciate it if you could supply kinase still bound, per cent of control values for the items below.
Target: PKMYT1 (human)
Test: KINOMEscan competition binding
Settings: compound 10.0 µM
Numbers only, in %.

# count of solved cases: 4
{"chemical_string": "COc1cc2ncnc(-n3nc(-c4ccccn4)nc3N)c2cc1OC", "study_system": "PKMYT1 (human)", "kinase still bound, per cent of control, %": 63}
{"chemical_string": "CCN(CC)CCCCNc1ncc2c(n1)N(C)C(=O)N(c1c(Cl)c(OC)cc(OC)c1Cl)C2", "study_system": "PKMYT1 (human)", "kinase still bound, per cent of control, %": 100}
{"chemical_string": "COCC(=O)NC/C=C/c1ccc2ncnc(Nc3ccc(Oc4ccc(C)nc4)c(C)c3)c2c1", "study_system": "PKMYT1 (human)", "kinase still bound, per cent of control, %": 100}
{"chemical_string": "NC(=O)Nc1cc(-c2cccc(F)c2)sc1C(=O)N[C@@H]1CCCNC1", "study_system": "PKMYT1 (human)", "kinase still bound, per cent of control, %": 33}

Quick request: kinase still bound, per cent of control for each listed item, please.
1. COc1cc2ncn(-c3cc(OCc4ccccc4C(F)(F)F)c(C(N)=O)s3)c2cc1OC
2. CNC(=O)c1cc(Oc2ccc(NC(=O)Nc3ccc(Cl)c(C(F)(F)F)c3)cc2)ccn1
3. CCN(CC)CCCCNc1ncc2cc(-c3cc(OC)cc(OC)c3)c(NC(=O)NC(C)(C)C)nc2n1
4. CS(=O)(=O)N1CCN(Cc2cc3nc(-c4cccc5[nH]ncc45)nc(N4CCOCC4)c3s2)CC1

Return:
1. 60
2. 94
3. 100
4. 100

----------
Biological target: ERBB3 (human) (UniProt P21860)
Sequence (P21860 whole entry, looked up): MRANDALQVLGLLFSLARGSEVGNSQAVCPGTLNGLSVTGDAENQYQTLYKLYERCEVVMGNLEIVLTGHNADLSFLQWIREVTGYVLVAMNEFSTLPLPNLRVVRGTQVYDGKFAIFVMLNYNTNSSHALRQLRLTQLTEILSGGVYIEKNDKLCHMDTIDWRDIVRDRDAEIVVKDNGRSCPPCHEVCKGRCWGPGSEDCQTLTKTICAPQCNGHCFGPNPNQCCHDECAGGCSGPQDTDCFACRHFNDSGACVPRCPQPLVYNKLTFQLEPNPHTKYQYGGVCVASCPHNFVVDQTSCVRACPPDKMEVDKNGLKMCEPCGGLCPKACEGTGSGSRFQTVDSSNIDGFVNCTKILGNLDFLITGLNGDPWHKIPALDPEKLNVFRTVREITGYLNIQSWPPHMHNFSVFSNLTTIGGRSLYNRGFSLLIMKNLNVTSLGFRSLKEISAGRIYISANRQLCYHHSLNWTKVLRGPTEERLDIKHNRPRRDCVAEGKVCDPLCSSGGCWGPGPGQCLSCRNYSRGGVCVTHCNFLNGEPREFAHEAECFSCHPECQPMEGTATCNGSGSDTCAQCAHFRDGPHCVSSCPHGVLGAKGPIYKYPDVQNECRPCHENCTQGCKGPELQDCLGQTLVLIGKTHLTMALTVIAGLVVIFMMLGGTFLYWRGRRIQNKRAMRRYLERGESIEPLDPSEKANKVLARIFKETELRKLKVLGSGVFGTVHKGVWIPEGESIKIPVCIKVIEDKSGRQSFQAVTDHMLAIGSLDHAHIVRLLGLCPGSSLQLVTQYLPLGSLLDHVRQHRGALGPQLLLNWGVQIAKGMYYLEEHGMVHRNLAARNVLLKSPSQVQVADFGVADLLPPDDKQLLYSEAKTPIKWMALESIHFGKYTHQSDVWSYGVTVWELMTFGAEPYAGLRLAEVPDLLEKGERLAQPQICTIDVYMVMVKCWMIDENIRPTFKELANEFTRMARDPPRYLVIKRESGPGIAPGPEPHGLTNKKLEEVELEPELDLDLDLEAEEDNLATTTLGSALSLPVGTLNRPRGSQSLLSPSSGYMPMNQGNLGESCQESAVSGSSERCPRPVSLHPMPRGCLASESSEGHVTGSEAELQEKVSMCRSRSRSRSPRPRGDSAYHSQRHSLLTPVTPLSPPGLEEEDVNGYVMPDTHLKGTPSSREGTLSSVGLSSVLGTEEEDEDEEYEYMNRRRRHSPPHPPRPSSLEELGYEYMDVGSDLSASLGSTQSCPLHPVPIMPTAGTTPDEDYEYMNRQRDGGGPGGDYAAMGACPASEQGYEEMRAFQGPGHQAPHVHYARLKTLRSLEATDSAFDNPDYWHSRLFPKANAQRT
Test: KINOMEscan competition binding
Conditions: compound 10.0 µM
property_label: kinase still bound, per cent of control (%)
Answers are plain numbers, in %.

{"chemical_string": "COc1cc(N2CCN(C)CC2)ccc1Nc1ncc2c(n1)N(C)c1ccccc1C(=O)N2C", "kinase still bound, per cent of control, %": 100}

Quick request: kinase still bound, per cent of control for each listed item, please.
1. COc1cc2ncn(-c3cc(OCc4ccccc4C(F)(F)F)c(C(N)=O)s3)c2cc1OC
2. CCN1CCN(C(=O)Cc2ccc(Nc3ncc(F)c(Nc4ccc(C(=O)Nc5ccccc5Cl)cc4)n3)cc2)CC1
3. O=C1NC(=O)/C(=C/c2ccc3nccc(-c4ccncc4)c3c2)S1
4. O=c1cc(N2CCOCC2)oc2c(-c3cccc4c3sc3ccccc34)cccc12
5. N#CCNC(=O)c1ccc(-c2ccnc(Nc3ccc(N4CCOCC4)cc3)n2)cc1
6. CS(=O)(=O)N1CCN(Cc2cc3nc(-c4cccc5[nH]ncc45)nc(N4CCOCC4)c3s2)CC1
7. COCC(=O)NC/C=C/c1ccc2ncnc(Nc3ccc(Oc4ccc(C)nc4)c(C)c3)c2c1
8. COc1cc(C(=O)N2CCC(N3CCN(C)CC3)CC2)ccc1Nc1ncc2c(n1)N(C)c1ccccc1C(=O)N2C

Return:
100
45
88
72
100
100
20
100

Quick request: kinase still bound, per cent of control for each listed item, please.
1. C=CC(=O)Nc1cc(-n2c(=O)ccc3cnc4ccc(-c5cn[nH]c5)cc4c32)ccc1C
2. COc1ccc(N(C(=O)Oc2c(C)cccc2C)c2ccnc(Nc3ccc(N4CCN(C)CC4)cc3)n2)c(OC)c1

Return:
1: 94; 2: 0

----------
Target: JAK1 JH1 catalytic (human) (UniProt P23458)
Sequence (P23458 whole entry, looked up): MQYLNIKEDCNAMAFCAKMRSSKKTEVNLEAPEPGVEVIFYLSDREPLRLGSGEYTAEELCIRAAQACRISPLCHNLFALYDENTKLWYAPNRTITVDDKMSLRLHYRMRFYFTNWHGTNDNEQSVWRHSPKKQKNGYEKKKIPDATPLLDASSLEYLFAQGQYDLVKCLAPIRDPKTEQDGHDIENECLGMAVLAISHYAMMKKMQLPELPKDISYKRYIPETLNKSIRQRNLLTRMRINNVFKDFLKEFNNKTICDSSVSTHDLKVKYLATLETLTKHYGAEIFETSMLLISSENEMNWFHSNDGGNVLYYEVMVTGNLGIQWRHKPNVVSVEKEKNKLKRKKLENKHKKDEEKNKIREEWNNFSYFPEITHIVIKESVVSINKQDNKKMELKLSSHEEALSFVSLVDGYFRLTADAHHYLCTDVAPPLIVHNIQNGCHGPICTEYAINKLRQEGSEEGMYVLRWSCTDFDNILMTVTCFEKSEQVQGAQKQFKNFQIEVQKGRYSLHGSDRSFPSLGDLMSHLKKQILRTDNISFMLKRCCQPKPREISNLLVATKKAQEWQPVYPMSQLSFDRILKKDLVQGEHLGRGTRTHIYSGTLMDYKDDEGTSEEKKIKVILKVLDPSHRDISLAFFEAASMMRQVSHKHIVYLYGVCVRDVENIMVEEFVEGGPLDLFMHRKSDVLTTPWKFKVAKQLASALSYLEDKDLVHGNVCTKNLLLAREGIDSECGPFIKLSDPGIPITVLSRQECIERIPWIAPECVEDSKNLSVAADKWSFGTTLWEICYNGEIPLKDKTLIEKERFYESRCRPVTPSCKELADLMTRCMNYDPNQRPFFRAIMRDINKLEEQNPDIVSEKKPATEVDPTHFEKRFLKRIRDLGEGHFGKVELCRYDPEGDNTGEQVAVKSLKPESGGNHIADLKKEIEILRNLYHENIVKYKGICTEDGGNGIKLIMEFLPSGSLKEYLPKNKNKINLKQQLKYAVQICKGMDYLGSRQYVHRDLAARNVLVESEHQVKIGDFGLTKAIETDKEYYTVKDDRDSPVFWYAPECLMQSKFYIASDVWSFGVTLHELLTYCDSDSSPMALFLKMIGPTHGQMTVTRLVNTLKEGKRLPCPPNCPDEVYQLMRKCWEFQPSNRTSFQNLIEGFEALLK
Experiment: KINOMEscan competition binding
Settings: compound 10.0 µM
property_label: kinase still bound, per cent of control (%)
Numbers only, in %.

Quick request: kinase still bound, per cent of control for each listed item, please.
1. O=c1cc(N2CCOCC2)oc2c(-c3cccc4c3sc3ccccc34)cccc12
2. O=C(Nc1cccc(Nc2ncc(Br)c(NCCc3cnc[nH]3)n2)c1)N1CCCC1
3. N#CCNC(=O)c1ccc(-c2ccnc(Nc3ccc(N4CCOCC4)cc3)n2)cc1
4. O=C1NC(=O)/C(=C/c2ccc3nccc(-c4ccncc4)c3c2)S1
5. CCN(CC)CCCCNc1ncc2c(n1)N(C)C(=O)N(c1c(Cl)c(OC)cc(OC)c1Cl)C2

Return:
[100, 0.25, 13, 95, 100]

----------
Target: PDPK1 (human)
Experiment: KINOMEscan competition binding
Details: compound 10.0 µM
property_label: kinase still bound, per cent of control (%)
Numbers only, in %.

# count of solved cases: 3
{"chemical_string": "CCN(CC)CCCCNc1ncc2c(n1)N(C)C(=O)N(c1c(Cl)c(OC)cc(OC)c1Cl)C2", "kinase still bound, per cent of control [%]": 100}
{"chemical_string": "CNC(=O)c1ccc(Nc2cc(Nc3ccccc3S(=O)(=O)C(C)C)c3cc[nH]c3n2)nc1", "kinase still bound, per cent of control [%]": 100}
{"chemical_string": "NC(=O)Nc1cc(-c2cccc(F)c2)sc1C(=O)N[C@@H]1CCCNC1", "kinase still bound, per cent of control [%]": 0.7}

Quick request: kinase still bound, per cent of control for each listed item, please.
1. CN(C)C/C=C/C(=O)Nc1ccc(C(=O)Nc2cccc(Nc3nccc(-c4cccnc4)n3)c2)cc1
2. O=C1NC(=O)/C(=C/c2ccc3nccc(-c4ccncc4)c3c2)S1
3. CCN(CC)CCCCNc1ncc2cc(-c3cc(OC)cc(OC)c3)c(NC(=O)NC(C)(C)C)nc2n1
4. C=CC(=O)Nc1cc(-n2c(=O)ccc3cnc4ccc(-c5cn[nH]c5)cc4c32)ccc1C
5. CS(=O)(=O)N1CCN(Cc2cc3nc(-c4cccc5[nH]ncc45)nc(N4CCOCC4)c3s2)CC1
6. COc1cc(C(=O)N2CCC(N3CCN(C)CC3)CC2)ccc1Nc1ncc2c(n1)N(C)c1ccccc1C(=O)N2C

Return:
1. 100
2. 62
3. 100
4. 100
5. 100
6. 100

----------
Biological target: ACVR1 (human) (UniProt Q04771)
Sequence (Q04771 whole entry, looked up): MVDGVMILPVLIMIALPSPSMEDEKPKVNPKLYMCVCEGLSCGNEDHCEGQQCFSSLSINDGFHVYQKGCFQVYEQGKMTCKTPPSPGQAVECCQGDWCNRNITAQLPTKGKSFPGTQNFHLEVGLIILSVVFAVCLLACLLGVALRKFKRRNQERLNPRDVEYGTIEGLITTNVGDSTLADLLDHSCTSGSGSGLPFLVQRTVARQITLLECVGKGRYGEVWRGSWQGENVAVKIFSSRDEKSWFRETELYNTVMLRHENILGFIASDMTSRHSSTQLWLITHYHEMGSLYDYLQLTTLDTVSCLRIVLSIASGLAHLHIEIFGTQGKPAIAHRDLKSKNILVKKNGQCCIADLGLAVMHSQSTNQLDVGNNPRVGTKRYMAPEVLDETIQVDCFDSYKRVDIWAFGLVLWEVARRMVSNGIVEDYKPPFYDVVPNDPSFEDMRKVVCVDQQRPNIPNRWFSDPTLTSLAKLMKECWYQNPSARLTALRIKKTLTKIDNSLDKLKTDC
Assay: KINOMEscan competition binding
Conditions: compound 10.0 µM
Rule: measured kinase still bound, per cent of control below 50% gets 1; anything equal to or greater than 50% gets 0.

Reference set (5 entries):
{"chemical_string": "CNC(=O)c1ccc(Nc2cc(Nc3ccccc3S(=O)(=O)C(C)C)c3cc[nH]c3n2)nc1", "discrete_label": 0}
{"chemical_string": "NC(=O)Nc1cc(-c2cccc(F)c2)sc1C(=O)N[C@@H]1CCCNC1", "discrete_label": 1}
{"chemical_string": "COc1cc(C(=O)N2CCC(N3CCN(C)CC3)CC2)ccc1Nc1ncc2c(n1)N(C)c1ccccc1C(=O)N2C", "discrete_label": 0}
{"chemical_string": "CNC(=O)c1cc(Oc2ccc(NC(=O)Nc3ccc(Cl)c(C(F)(F)F)c3)cc2)ccn1", "discrete_label": 0}
{"chemical_string": "CCN(CC)CCCCNc1ncc2cc(-c3cc(OC)cc(OC)c3)c(NC(=O)NC(C)(C)C)nc2n1", "discrete_label": 0}

Enquiry: Strictly below 50%: is that where kinase still bound, per cent of control of `O=C1NC(=O)/C(=C/c2ccc3nccc(-c4ccncc4)c3c2)S1` sits?
Return: 1

Enquiry: Strictly below 50%: is that where kinase still bound, per cent of control of `N#CCNC(=O)c1ccc(-c2ccnc(Nc3ccc(N4CCOCC4)cc3)n2)cc1` sits?
Return: 1

----------
Molecular target: TYK2 JH1 catalytic (human)
Assay: KINOMEscan competition binding
Conditions: compound 10.0 µM
property_label: kinase still bound, per cent of control (%)
Give bare numbers, in %.

{"chemical_string": "C=CC(=O)Nc1cc(-n2c(=O)ccc3cnc4ccc(-c5cn[nH]c5)cc4c32)ccc1C", "kinase still bound, per cent of control / %": 29}
{"chemical_string": "NC(=O)Nc1cc(-c2cccc(F)c2)sc1C(=O)N[C@@H]1CCCNC1", "kinase still bound, per cent of control / %": 0}
{"chemical_string": "O=C1NC(=O)/C(=C/c2ccc3nccc(-c4ccncc4)c3c2)S1", "kinase still bound, per cent of control / %": 38}
{"chemical_string": "CCN1CCN(C(=O)Cc2ccc(Nc3ncc(F)c(Nc4ccc(C(=O)Nc5ccccc5Cl)cc4)n3)cc2)CC1", "kinase still bound, per cent of control / %": 22}
{"chemical_string": "CNC(=O)c1cc(Oc2ccc(NC(=O)Nc3ccc(Cl)c(C(F)(F)F)c3)cc2)ccn1", "kinase still bound, per cent of control / %": 70}
{"chemical_string": "CN(C)C/C=C/C(=O)Nc1ccc(C(=O)Nc2cccc(Nc3nccc(-c4cccnc4)n3)c2)cc1", "kinase still bound, per cent of control / %": 15}
{"chemical_string": "COc1cc(N2CCN(C)CC2)ccc1Nc1ncc2c(n1)N(C)c1ccccc1C(=O)N2C", "kinase still bound, per cent of control / %": 100}
{"chemical_string": "CCN(CC)CCCCNc1ncc2c(n1)N(C)C(=O)N(c1c(Cl)c(OC)cc(OC)c1Cl)C2", "kinase still bound, per cent of control / %": 100}

Enquiry: Look up kinase still bound, per cent of control: `CNC(=O)c1ccc(Nc2cc(Nc3ccccc3S(=O)(=O)C(C)C)c3cc[nH]c3n2)nc1`
Return: 0.25
